Reference source: paper PMC8445441

# Tested on: P. aeruginosa ATCC27853
# protocol: microbe, parasite or virus in culture
# settings: Pseudomonas aeruginosa, ATCC27853, 18 h, read-out: MICa: MIC of the antibiotic
Items are presented alongside their recorded MIC.
reported.endpoint: MIC (µM)

smiles.structure	tgt	value.operator	result
CO[C@H]1/C=C/O[C@@]2(C)Oc3c(C)c(O)c4c(O)c(c5c(nc6cc(C)ccn65)c4c3C2=O)NC(=O)/C(C)=C\C=C\[C@H](C)[C@H](O)[C@@H](C)[C@@H](O)[C@@H](C)[C@H](OC(C)=O)[C@@H]1C	P. aeruginosa ATCC27853	=	16
C[C@H]1COc2c(N3CCN(C)CC3)c(F)cc3c(=O)c(C(=O)O)cn1c23	P. aeruginosa ATCC27853	=	1
CO[C@@H]1[C@@H](OC(N)=O)[C@@H](O)[C@H](Oc2ccc3c(O)c(NC(=O)c4ccc(O)c(CC=C(C)C)c4)c(=O)oc3c2C)OC1(C)C	P. aeruginosa ATCC27853	>	128
